B1: ZNF649 (parent)
chain: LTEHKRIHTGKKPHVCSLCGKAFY

# Variants of: B1
# method-summary: protein stability index of a GFP-peptide fusion (GPS, HEK-293T) (PSI 1-6); higher = more stable;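 note: lentivirally expressed fusions sorted by FACS into six bins by GFP to DsRed ratio, PSI derived from sequencing read proportions per bin multiplied by bin number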
# particulars: c terminus: a fixed tail appended
Label rule, in plain words: protein stability index of 3 and up is Met, under 3 is Not met.

- C19P: Not met
- K12A: Not met
- H14D: Not met
- K12E: Not met
- C16Q: Not met
- G10V: Not met
- V15L: Not met
- L18D: Not met
- K21Q: Met
- H4F: Not met
- Y24K: Met
- I7Q: Not met
- H4I: Not met
- L18E: Met
- C19D: Met
- K12M: Not met
- G20I: Not met
- L18W: Not met
- K21S: Not met
